biological target: T1, hCD47-ECD-HIS recombinant protein (human, UniProt Q08722 19-139, limits assumed); assay: BLI (ForteBio), antibody on AHC sensor, 100 nM CD47 antigen, 1:1 model
T1 construct: extracellular domain; also called hCD47 antigen; CD47 antigen
T1 sequence (Q08722 other isoform, or with tags, fused parts or gaps limits assumed): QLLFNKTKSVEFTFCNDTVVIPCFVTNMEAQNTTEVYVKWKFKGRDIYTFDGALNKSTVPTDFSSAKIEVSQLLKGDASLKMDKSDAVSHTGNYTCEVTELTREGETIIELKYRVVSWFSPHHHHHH
observation-type: pKd
Remember, pKd is on a log scale: it is -log10 of the molar concentration.

Sample records with pKd:
Please list pKd recorded for the binder 7A11H11 (antibody, V domains shown, also called CD47 antibody) VH: QVQLVQPGAEVKKPGASVKLSCKASGSSFTSNWMNWVRQAPGQGLEWIGMIHPSDSETRLNQKFKDRATLTVDKSTSTAYMELSSPRSEDTAVYYCARGTTVVDAFAYWGQGTTVTVSS VL: DIVMTQSPDSLAVSLGERATMNCKSSQSLLNSRTRKNYLAWYQQKPGQPPKLLIYWASTRESGVPDRFSGSGSGTDFTLTISSLQAEDVAVYYCKQSYNLRTFGGGTKLEIK 9.23

Give the measured pKd for 7A11H15 (antibody, V domains shown, also called CD47 antibody) VH: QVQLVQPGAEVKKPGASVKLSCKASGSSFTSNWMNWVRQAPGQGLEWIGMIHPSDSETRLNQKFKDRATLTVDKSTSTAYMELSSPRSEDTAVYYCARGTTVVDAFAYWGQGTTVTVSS VL: EIVMTQSPPTLSLSPGERVTMSCKSSQSLLNSRTRKNYLAWYQQKPGQAPRLLIYWASTRESGIPARFSGSGSGTDFTLTISSLQPEDFAVYYCKQSYNLRTFGGGTKLEIK 9.67

Now examine the next entry.
State its pKd for this binder: 7A11H12 (antibody, V domains shown, also called CD47 antibody) VH: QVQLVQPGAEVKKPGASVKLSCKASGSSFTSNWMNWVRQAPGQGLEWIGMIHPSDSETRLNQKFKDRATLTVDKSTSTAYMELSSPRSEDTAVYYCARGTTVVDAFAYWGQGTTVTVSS VL: DIQMTQSPSSLSASVGDRVTMTCKSSQSLLNSRTRKNYLAWYQQKPGKAPKLLIYWASTRESGVPSRFSGSGSGTDFTLTISSLQPEDFATYYCKQSYNLRTFGGGTKLEIK 9.34
